# tgt: N-lysine methyltransferase KMT5A (Homo sapiens)
# experimentSummary: Inhibition of SETD8 (unknown origin) using biotin-labeled histone H4 (1 to 24 residues) as substrate assessed as residual activity at 50 uM in presence of [3H-Me]SAM by scintillation proximity assay relative to control
resultType: Activity (%)

O=C(c1cccc(Br)c1)N1CC[C@H]2NCC[C@H]2C1	113
CN1CCCCC12CCN(C(=O)c1cccc(Br)c1)CC2	43
CN1CCC2(CCCN(C(=O)c3cccc(Br)c3)C2)C1 (stereo unspecified)	106

1 = O=C(c1cccc(Br)c1)N1CCC2(CCNCC2)CC1
2 = CN1CCC[C@@H]2CN(C(=O)c3cccc(Br)c3)C[C@@H]21
Please let me know which one, 1 or 2 , has a lower measured Activity value. State your choice using its label.
2
(2: 45%, 1: 101%)
